B1: Lysine-specific demethylase 2B, residues 656 to 722; numbered along this chain, Q8NHM5 (parent)
chain: LPHTAVCLVCGEAGKEDTVEEEEGKFNLMLMECSICNEIIHPGCLKIKESEGVVNDELPNCWECPKC

- Variants of: B1
- PROTOCOL: abundance fitness (aPCA) (normalised: wild type 0, dead -1); higher = more abundant; growth selection in yeast, the domain comes from the species named
- DETAILS: Homo sapiens
READOUT_KIND: abundance fitness
Reply briefly: the number, and no unit.

These solved cases illustrate the format of a correct answer.
G11K : 0.222
D17Y : -0.315
C10F : -0.868
V9K : 0.088

Query: Fill in reported abundance fitness for this entry: E21D
Result: -0.028

Query: Fill in reported abundance fitness for this entry: L28W
Result: 0.039
